Would you kindly list IC50 for each of these molecules?
# assaySystem: PD-L1 (Homo sapiens (Human), UniProt Q9NZQ7)
# Sequence (Q9NZQ7 19-290): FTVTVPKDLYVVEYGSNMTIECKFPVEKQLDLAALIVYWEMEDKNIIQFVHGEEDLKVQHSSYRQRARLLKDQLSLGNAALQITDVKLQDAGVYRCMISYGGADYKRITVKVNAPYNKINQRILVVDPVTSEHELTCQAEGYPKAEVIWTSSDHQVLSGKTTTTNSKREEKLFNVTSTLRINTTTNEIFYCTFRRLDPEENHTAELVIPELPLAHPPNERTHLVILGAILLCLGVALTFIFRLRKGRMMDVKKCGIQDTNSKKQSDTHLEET
# experiment: Indirect PD-L1 internalization assay using MDA-MB231 cells
# Assay type: cell-based
# conditionDescription: 16 hrs

IC50 for Cc1c(NC(=O)c2nc3c(n2C)CCN(C[C@@H](C)O)C3)cccc1-c1cccc(NC(=O)c2nc3c(n2C)CCN(C)C3)c1Cl ? < 10 nM

IC50 for Cc1c(-c2nc3cc(CN4CC[C@@](C)(C(=O)O)C4)cc(C#N)c3o2)cccc1-c1cccc(Nc2nccc3cc(CN4CC[C@H](O)C4)cnc23)c1Cl ? 10 to 100 nM

IC50 for Cc1c(Nc2nccc3cc(CN4CC[C@@H](O)C4)cnc23)cccc1-c1cccc(-c2nc3cc(CNCC(C)(C)C(=O)O)cc(C#N)c3o2)c1C ? 10 to 100 nM

IC50 for Cc1c(-c2nc3cc(CN4CC[C@@H](C(=O)O)C4)cc(C#N)c3o2)cccc1-c1cccc(-n2cc3c(n2)CN(C(C)C)CC3)c1Cl ? > 500 nM

IC50 for Cc1c(Nc2nccc3cc(CN4CC[C@@H](O)C4)cnc23)cccc1-c1cccc(-c2nc3c(Cl)cc(CN4CC[C@@H](C(=O)O)C4)cn3n2)c1C ? 100 to 500 nM

IC50 for Cc1c(-c2nc3c(Cl)cc(CN4CC[C@@H](O)C4)cn3n2)cccc1-c1cccc(-c2nc3cc(CN4CC[C@@H](C(=O)O)C4)cc(C#N)c3o2)c1C ? 10 to 100 nM
